Please provide measured DC50 for the entries that follow.
- targetDesc: HPK1 (Homo sapiens)
- Construct: A HiBiT tag was introduced by CRISPR on the N terminus of HPK1 in Jurkat cells; host or cells: Jurkat cells (ATCC TIB-152), monoclonal line with CRISPR knock-in of HiBiT at the endogenous HPK1 locus
- protocolDetails: HPK1 Cellular HiBit Degradation Assay
- Format: cell-based
- assayContext: HiBiT HPK1 Jurkat cells, 24 hrs; concentration at which 50% of HPK1 was remaining; read-out: DC50 Category

If you can, please state the reported DC50 value of CC(C)n1cnc2cc(-c3ccc4c(c3)N([C@H]3C[C@@H](N5CCCCC5)C3)C(=O)C43CCN(C(=O)C4CCCN(C(=O)C5CCN(c6ccc(C7CCC(=O)NC7=O)cn6)CC5)C4)CC3)nc(NC3CC3)c21 (mixture of isomers) [Example 272] .
< 100 nM

State the recorded DC50 for this entry: Cc1nc(N2CCC(C(=O)N3CCC(C)(C(=O)N4CCC5(CC4)C(=O)N([C@H]4C[C@@H](N6CCCCC6)C4)c4cc(-c6cc7ncn(C(C)C)c7c(Nc7ccccc7F)n6)ccc45)CC3)CC2)ccc1C1CCC(=O)NC1=O (mixture of isomers) [Example 157]
100 to 500 nM

// DC50 lookup, key: CC(C)n1cnc2cc(-c3ccc4c(c3)N([C@H]3C[C@@H](N5CCCCC5)C3)C(=O)C43CCN(C(=O)C4CCN(C(=O)[C@H]5CC[C@H](C(=O)N6CCc7cc(C8CCC(=O)NC8=O)ccc7C6)CC5)CC4)CC3)nc(Nc3ccccc3F)c21 (stereo partly shown) [Example 48]
< 100 nM

Look at this compound and give its reported DC50. CC(C)n1cnc2cc(-c3ccc4c(c3)N([C@H]3C[C@@H](N5CCCCC5)C3)C(=O)C43CCN(C(=O)C4CCN(C(=O)C5CCN(c6ccc(C7CCC(=O)NC7=O)nc6)CC5)CC4)CC3)nc(Nc3ccncc3F)c21 (mixture of isomers) [Example 82]
< 100 nM

---

- targetDesc: HPK1 (Homo sapiens, UniProt Q92918)
- Construct: A HiBiT tag was introduced by CRISPR on the N terminus of HPK1 in Jurkat cells; host or cells: Jurkat cells (ATCC TIB-152), monoclonal line with CRISPR knock-in of HiBiT at the endogenous HPK1 locus
- Sequence (Q92918 whole entry): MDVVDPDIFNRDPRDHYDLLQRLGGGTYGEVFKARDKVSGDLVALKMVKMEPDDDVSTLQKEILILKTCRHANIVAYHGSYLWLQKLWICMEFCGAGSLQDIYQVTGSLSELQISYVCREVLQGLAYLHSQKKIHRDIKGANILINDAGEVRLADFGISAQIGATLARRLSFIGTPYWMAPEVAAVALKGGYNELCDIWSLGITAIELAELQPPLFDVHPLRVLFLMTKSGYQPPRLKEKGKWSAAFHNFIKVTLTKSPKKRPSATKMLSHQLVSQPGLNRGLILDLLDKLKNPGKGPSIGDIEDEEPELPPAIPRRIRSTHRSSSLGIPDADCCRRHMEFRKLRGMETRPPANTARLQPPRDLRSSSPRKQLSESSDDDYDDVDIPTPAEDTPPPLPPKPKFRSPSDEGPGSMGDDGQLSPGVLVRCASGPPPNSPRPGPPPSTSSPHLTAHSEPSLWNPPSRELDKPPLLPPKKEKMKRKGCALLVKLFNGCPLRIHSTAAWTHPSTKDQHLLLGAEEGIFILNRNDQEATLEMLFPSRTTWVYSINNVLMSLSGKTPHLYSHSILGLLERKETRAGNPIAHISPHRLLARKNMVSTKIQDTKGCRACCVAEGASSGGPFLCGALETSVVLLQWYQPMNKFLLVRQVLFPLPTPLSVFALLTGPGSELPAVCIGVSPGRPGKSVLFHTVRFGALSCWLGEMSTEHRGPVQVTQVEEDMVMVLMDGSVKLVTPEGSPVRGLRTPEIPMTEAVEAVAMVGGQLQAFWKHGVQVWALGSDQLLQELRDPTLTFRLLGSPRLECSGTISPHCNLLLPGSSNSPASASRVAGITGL
- protocolDetails: HPK1 Cellular HiBit Degradation Assay
- Type: cell-based
- assayContext: Jurkat, HiBiT HPK1 Jurkat cells, 24 hrs; maximum degradation vs DMSO vehicle control; read-out: Dmax Category
Assign Dmax to each entry below.

Name the reported Dmax value associated with the compound CC(C)n1cnc2cc(-c3ccc4c(c3)N([C@H]3C[C@@H](N5CCCCC5)C3)C(=O)C43CCN(C(=O)C4CCC5(CC4)CCN(C(=O)C4CCN(c6ccc(C7CCC(=O)NC7=O)cn6)CC4)CC5)CC3)nc(NC3CC3)c21 (mixture of isomers) [Example 295]
70 to 85%

Form field: reported Dmax of CC(C)n1cnc2cc(-c3ccc4c(c3)N([C@H]3C[C@@H](N5CCCCC5)C3)C(=O)C43CCN(C(=O)[C@H]4CC[C@H](C(=O)N5CCC(N(C)c6ccc(C7CCC(=O)NC7=O)cn6)CC5)CC4)CC3)nc(Nc3ccccc3F)c21 (mixture of isomers) [Example 138]
> 85%

Entry CC(C)n1cnc2cc(-c3ccc4c(c3)N([C@H]3C[C@@H](N5CCCCC5)C3)C(=O)C43CCN(C(=O)[C@]4(C)CCN(C(=O)C5CCN(c6ccc(C7CCC(=O)NC7=O)cn6)CC5)C4)CC3)nc(NC3CC3)c21 (mixture of isomers) [Example 186] : reported Dmax = ?
70 to 85%

Dear colleague, I am looking for the recorded Dmax of the following compound: CC(C)n1cnc2cc(-c3ccc4c(c3)N([C@H]3C[C@@H](N5CCCCC5)C3)C(=O)C43CCN(C(=O)C4(C)CCN(C(=O)[C@H]5CC[C@H](Oc6ncc(C7CCC(=O)NC7=O)cn6)CC5)CC4)CC3)nc(NC3CC3)c21 (mixture of isomers) [Example 194]
70 to 85%

Requested field: Dmax. Item: CC(C)n1cnc2cc(-c3ccc4c(c3)N([C@H]3C[C@@H](N5CCCCC5)C3)C(=O)C43CCN(C(=O)[C@H]4CC[C@H](C(=O)N5CCC(Oc6ccc(C7CCC(=O)NC7=O)cn6)CC5)CC4)CC3)nc(Nc3ccccc3F)c21 (mixture of isomers) [Example 28]
70 to 85%

# Dmax lookup, item CC(C)n1cnc2cc(-c3ccc4c(c3)N([C@H]3C[C@@H](N5CCCCC5)C3)C(=O)C43CCN(C(=O)[C@@H]4CCN(C(=O)[C@H]5CC[C@H](Oc6ccc(N7CCC(=O)NC7=O)cn6)CC5)C4)CC3)nc(Nc3ccccc3F)c21 [Example 21]
> 85%

Need Dmax, item CC(C)n1cnc2cc(-c3ccc4c(c3)N([C@H]3C[C@@H](N5CCCCC5)C3)C(=O)C43CCN(C(=O)C4CCN(C(=O)CC5CCN(c6ccc(C7CCC(=O)NC7=O)cn6)CC5)CC4)CC3)nc(NC3CC3)c21 (mixture of isomers) [Example 93]
50 to 70%

Consider the compound shown here: Cc1cc(F)c(Nc2nc(-c3ccc4c(c3)N([C@H]3C[C@@H](N5CCCCC5)C3)C(=O)C43CCN(C(=O)C4=CCN(C(=O)C5CCN(c6ccc7c(c6)C(=O)N(C6CCC(=O)NC6=O)C7=O)CC5)CC4)CC3)cc3ncn(C(C)C)c23)cc1C(=O)NC(C)C (mixture of isomers) [Example 37] What is its recorded Dmax?
50 to 70%

---

For each record, write down the corresponding Dmax.
- targetDesc: HPK1 (Homo sapiens, UniProt Q92918)
- Construct: A HiBiT tag was introduced by CRISPR on the N terminus of HPK1 in Jurkat cells; host or cells: Jurkat cells (ATCC TIB-152), monoclonal line with CRISPR knock-in of HiBiT at the endogenous HPK1 locus
- protocolDetails: HPK1 Cellular HiBit Degradation Assay
- Format: cell-based
- assayContext: Jurkat, HiBiT HPK1 Jurkat cells, 24 hrs; maximum degradation vs DMSO vehicle control; read-out: Dmax Category

// query Dmax value for entry CC(C)n1cnc2cc(-c3ccc4c(c3)N([C@H]3C[C@@H](N5CCCCC5)C3)C(=O)C43CCN(C(=O)C4(C)CCN(C(=O)C5CCN(c6ccc7c(c6)C(=O)N(C6CCC(=O)NC6=O)C7=O)CC5)CC4)CC3)nc(Nc3ccccc3F)c21 (some centres unmarked) [Example 122]
70 to 85%

Quick one: Dmax for CC(C)n1cnc2cc(-c3ccc4c(c3)N([C@H]3C[C@@H](N5CCCCC5)C3)C(=O)C43CCN(C(=O)C4(C)CCN(C(=O)CN5CCC(c6ccc(C7CCC(=O)NC7=O)cn6)CC5)CC4)CC3)nc(NC3CC3)c21 (mixture of isomers) [Example 224] ?
70 to 85%

---

- targetDesc: HPK1 (Homo sapiens, UniProt Q92918)
- Construct: A HiBiT tag was introduced by CRISPR on the N terminus of HPK1 in Jurkat cells; host or cells: Jurkat cells (ATCC TIB-152), monoclonal line with CRISPR knock-in of HiBiT at the endogenous HPK1 locus
- protocolDetails: HPK1 Cellular HiBit Degradation Assay
- Assay type: cell-based
- assayContext: HiBiT HPK1 Jurkat cells, 24 hrs; concentration at which 50% of HPK1 was remaining; read-out: DC50 Category
Give DC50 for every item shown.

If you can, please state the reported DC50 value of CC(C)n1cnc2cc(-c3ccc4c(c3)N([C@H]3C[C@@H](N5CCCCC5)C3)C(=O)C43CCN(C(=O)[C@@H]4CCN(C(=O)[C@H]5CC[C@H](Nc6cncc(C7CCC(=O)NC7=O)c6)CC5)C4)CC3)nc(Nc3ccccc3F)c21 (mixture of isomers) [Example 12] .
500 to 1000 nM

For the molecule CC(C)n1cnc2cc(-c3ccc4c(c3)N([C@H]3C[C@@H](N5CCCCC5)C3)C(=O)C43CCN(C(=O)C4(C)CCN(C(=O)C5CCN(c6ccc(C7CCC(=O)NC7=O)cn6)CC5)CC4)CC3)nc(N[C@H]3C[C@@H](C#N)C3)c21 (some centres unmarked) [Example 174] , what DC50 is on record?
< 100 nM

Using the record for CC(C)n1cnc2cc(-c3ccc4c(c3)N([C@H]3C[C@@H](N5CCCCC5)C3)C(=O)C43CCN(C(=O)[C@H]4C[C@H]5C[C@@H]4CN5C(=O)C4CCN(c5ccc(C6CCC(=O)NC6=O)cn5)CC4)CC3)nc(NC3CC3)c21 (mixture of isomers) [Example 261] , report its DC50.
< 100 nM

Which DC50 is reported for this molecule? CC(C)n1cnc2cc(-c3ccc4c(c3)N([C@H]3C[C@@H](N5CCCCC5)C3)C(=O)C43CCN(C(=O)C4C5CC4CN(C(=O)C4CCN(c6ccc(C7CCC(=O)NC7=O)cn6)CC4)C5)CC3)nc(NC3CC3)c21 (mixture of isomers) [Example 282]
< 100 nM

Endpoint output: DC50 of CC(C)n1cnc2cc(-c3ccc4c(c3)N([C@H]3C[C@@H](N5CCCCC5)C3)C(=O)C43CCN(C(=O)C4(C)CCN(C(=O)[C@H]5CC[C@H](Oc6ccc(C7CCC(=O)NC7=O)cc6)CC5)CC4)CC3)nc(NC3CC3)c21 (mixture of isomers) [Example 101] . Value?
< 100 nM

Param item = CC(C)n1cnc2cc(-c3ccc4c(c3)N([C@H]3C[C@@H](N5C6CCC5COC6)C3)C(=O)C43CCN(C(=O)C4(C)CCN(C(=O)[C@H]5CC[C@H](Oc6ccc(C7CCC(=O)NC7=O)cc6)CC5)CC4)CC3)nc(NC3CC3)c21 (mixture of isomers) [Example 193] ; retrieve measured DC50.
100 to 500 nM

For the molecule shown here, CC(C)n1cnc2cc(-c3ccc4c(c3)N([C@H]3C[C@@H](N5CCCCC5)C3)C(=O)C43CCN(C(=O)C4(C)CCN(C(=O)N5CC6(C5)CN(c5ccc(C7CCC(=O)NC7=O)cn5)C6)CC4)CC3)nc(NC3CC3)c21 (some centres unmarked) [Example 184] , give the reported DC50.
100 to 500 nM

Which DC50 value belongs to CC(C)n1cnc2cc(-c3ccc4c(c3)N([C@H]3C[C@@H](N5CCCCC5)C3)C(=O)C43CCN(C(=O)C4(C)CCN(C(=O)CN5CCN(c6ccc(C7CCC(=O)NC7=O)cn6)CC5)CC4)CC3)nc(NC3CC3)c21 (mixture of isomers) [Example 123] ?
< 100 nM
